system: CD69 in human whole blood; assay: Induction of CD69 in human whole blood (hWB); format: cell-based; details: heparinized human whole blood, 17 h, CD69 surface staining; 100% set to 1 uM resiquimod; average where assay repeated
Mark True only when EC50 stays strictly below 200 nM. Values equal to the cut-off are False.

molecule=COc1cc(C(=O)N2CC3(CN(C)C3)C2)ccc1Cn1ncc2nc(N)nc(NCc3cc(C)on3)c21 label_class=True
molecule=CCC[C@@H](CCO)Nc1nc(N)nc2cnn(Cc3ccc(CN4CC5(C4)CN(CC4CC4)C5)cc3OC)c12 label_class=True
molecule=COc1cc(C(=O)NC2CN(C)C2)ccc1Cn1ncc2nc(N)nc(NCC3CC4(CCC4)C3)c21 label_class=False
molecule="COc1cc(CN2CC3(CNC3)C2)ccc1Cn1ncc2nc(N)nc(NCC3CC(C4CC4)C3)c21 (stereo not shown)" label_class=True
molecule=COc1cc(C(=O)N2CCC(S(C)(=O)=O)CC2)ccc1Cn1ncc2nc(N)nc(NCC3CC4(CC4)C3)c21 label_class=False

Then this molecule:
Task: In the record for "COc1cc(C(=O)N2C[C@@H]3CN(S(C)(=O)=O)C[C@@H]3C2)ccc1Cn1ncc2nc(N)nc(NCC3CC4(CC4)C3)c21" , is EC50 less than 200 nM?
Output: False

---

target: human TLR7 (Homo sapiens, UniProt Q9NYK1); test: Human TLR7 agonist activity (hTLR7 reporter) assay in HEK-Blue TLR7 cells, SEAP readout; conditions: 18 h treatment, average where assay repeated
Sequence (Q9NYK1 27-1049): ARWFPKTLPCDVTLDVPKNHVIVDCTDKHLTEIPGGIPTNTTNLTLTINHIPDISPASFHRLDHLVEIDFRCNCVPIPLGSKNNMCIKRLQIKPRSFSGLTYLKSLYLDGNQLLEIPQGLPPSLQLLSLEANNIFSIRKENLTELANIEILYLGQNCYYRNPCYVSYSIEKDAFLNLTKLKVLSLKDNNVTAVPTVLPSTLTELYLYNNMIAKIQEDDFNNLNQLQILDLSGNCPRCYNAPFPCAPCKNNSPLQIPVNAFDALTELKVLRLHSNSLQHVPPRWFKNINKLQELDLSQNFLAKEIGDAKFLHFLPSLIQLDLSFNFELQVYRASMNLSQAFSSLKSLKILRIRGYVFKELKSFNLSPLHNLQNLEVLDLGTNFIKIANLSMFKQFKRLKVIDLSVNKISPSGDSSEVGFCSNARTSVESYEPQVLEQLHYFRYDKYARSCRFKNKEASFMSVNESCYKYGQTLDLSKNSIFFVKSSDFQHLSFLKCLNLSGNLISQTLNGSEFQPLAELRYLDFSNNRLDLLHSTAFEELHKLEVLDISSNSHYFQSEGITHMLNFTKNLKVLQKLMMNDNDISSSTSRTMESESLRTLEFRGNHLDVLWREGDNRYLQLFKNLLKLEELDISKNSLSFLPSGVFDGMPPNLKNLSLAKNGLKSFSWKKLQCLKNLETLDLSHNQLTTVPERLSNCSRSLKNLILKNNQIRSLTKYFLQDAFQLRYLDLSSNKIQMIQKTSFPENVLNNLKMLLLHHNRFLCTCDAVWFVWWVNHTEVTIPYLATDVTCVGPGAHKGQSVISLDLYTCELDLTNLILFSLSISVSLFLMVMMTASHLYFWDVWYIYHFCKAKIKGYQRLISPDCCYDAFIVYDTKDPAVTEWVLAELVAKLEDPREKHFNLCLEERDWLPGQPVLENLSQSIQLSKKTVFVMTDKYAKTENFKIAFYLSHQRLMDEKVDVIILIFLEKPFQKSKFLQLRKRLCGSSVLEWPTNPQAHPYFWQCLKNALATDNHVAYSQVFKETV
Field: pEC50. Provide a value for each of the compounds that follow.
Answers are plain numbers, as −log10 of the molar value.

Recorded pEC50, per entry:
compound=COc1cc(C(=O)N2CCN(C(C)=O)CC2)ccc1Cn1ncc2nc(N)nc(NCC3CC4(CC4)C3)c21 measured_target="human TLR7 (Homo sapiens, UniProt Q9NYK1)" assay_metric=pEC50 reported=6.84
compound=COc1cc(C(=O)NC2CCN(CC(C)(C)O)CC2)ccc1Cn1ncc2nc(N)nc(NCC3CC4(CC4)C3)c21 measured_target="human TLR7 (Homo sapiens, UniProt Q9NYK1)" assay_metric=pEC50 reported=7.07

# map each compound to its pEC50
1. COc1cc(C(=O)N2C[C@H]3CN(C)C[C@H]3C2)ccc1Cn1ncc2nc(N)nc(NCC3CC4(C3)CC4(F)F)c21 (stereo partly shown)
2. CCC[C@@H](CCO)Nc1nc(N)nc2cnn(Cc3ccc(C(=O)N4CC5(C4)CN(C4CCOCC4)C5)cc3OC)c12

Output:
[8.03, 7.42]

# map each compound to its pEC50
1. COc1cc(C(=O)N2C[C@@H]3C[C@H]2CN3C)ccc1Cn1ncc2nc(N)nc(NCC3CC4(C3)CC4(F)F)c21 (stereo partly shown)
2. COc1cc(C(=O)NC2CCN(C)CC2)ccc1Cn1nc(C)c2nc(N)nc(NCC3CC4(CC4)C3)c21
3. COc1cc(C(=O)NCCN(C)C)ccc1Cn1ncc2nc(N)nc(NCC3CC4(C3)CC4(F)F)c21 (stereo not shown)
4. CCC[C@@H](CCO)Nc1nc(N)nc2cnn(Cc3ncc(C4CCC5(CC4)CN(C4CCOCC4)C5)cc3OC)c12
5. COc1cc(CNC2CCC2)ccc1Cn1ncc2nc(N)nc(NCC3CC4(C3)CC4F)c21 (mixture of isomers)
6. CCC[C@@H](CCO)Nc1nc(N)nc2cnn(Cc3ccc(CN4CC5(C4)CN(C(C)C)C5)cc3OC)c12

Output:
1: 7.35; 2: 6.49; 3: 6.15; 4: 7.88; 5: 7.08; 6: 8.14

# map each compound to its pEC50
1. COc1cc(C(=O)N2CCS(=O)(=O)CC2)ccc1Cn1ncc2nc(N)nc(NCC3CC4(CC4)C3)c21
2. COc1cc(C(=O)NCCN(C)C)ccc1Cn1ncc2nc(N)nc(NCC3CC4(CC4)C3)c21
3. COc1cc(C(=O)N[C@H]2CCN(C)C2)ccc1Cn1ncc2nc(N)nc(NCC3CC4(CC4)C3)c21
4. COc1cc(CN2CC(CCO)C2)ccc1Cn1ncc2nc(N)nc(NCC3CC4(CC4)C3)c21
5. CCC[C@@H](CCO)Nc1nc(N)nc2cnn(Cc3ncc(C4CC5(CCN(C6CCOCC6)CC5)C4)cc3OC)c12

Output:
6.30
7.03
7.33
7.52
7.94

# map each compound to its pEC50
1. COc1cc(CN2CC3(CC(O)C3)C2)ccc1Cn1ncc2nc(N)nc(NCC3CC4(CC4)C3)c21 (stereo not shown)
2. COc1cc(CNC2CCOCC2)ccc1Cn1ncc2nc(N)nc(NCC3CC4(C3)CC4(F)F)c21 (stereo not shown)
3. COc1cc(C(=O)N(CCO)CCO)ccc1Cn1ncc2nc(N)nc(NCC3CC4(CC4)C3)c21
4. CCCN1CCC(NC(=O)c2ccc(Cn3ncc4nc(N)nc(NCC5CC6(CC6)C5)c43)c(OC)c2)CC1
5. COc1cc(C(=O)N2CCC(S(C)(=O)=O)CC2)ccc1Cn1ncc2nc(N)nc(NCC3CC4(CC4)C3)c21
6. COc1cc(CN2CC3(C2)CN(C(C)=O)C3)ccc1Cn1ncc2nc(N)nc(NCC3CC4(C3)CC4(F)F)c21 (stereo not shown)
7. CCCCNc1nc(N)nc2cnn(Cc3ccc(CN4CCC5(C4)CN(CCO)C5)cc3OC)c12

Output:
1: 7.37; 2: 7.06; 3: 6.05; 4: 7.49; 5: 6.37; 6: 6.62; 7: 7.19

# map each compound to its pEC50
1. COc1cc(CN2CC3(C2)CN(C(C)C2(C)CC2)C3)ccc1Cn1ncc2nc(N)nc(NCC3CC4(C3)CC4(F)F)c21 (stereo not shown)
2. COc1cc(CN2C[C@H]3C[C@@H]2CN3C)ccc1Cn1ncc2nc(N)nc(NCC3CC4(C3)CC4(F)F)c21 (stereo partly shown)

Output:
1. 6.50
2. 7.30

# map each compound to its pEC50
1. COc1cc(CN2CC3(CC(OC)C3)C2)ccc1Cn1ncc2nc(N)nc(NCC3CC4(C3)CC4(F)F)c21 (stereo not shown)
2. COc1cc(C(=O)N2C[C@H]3CN(C)C[C@H]3C2)ccc1Cn1nc(C)c2nc(N)nc(NCC3CC4(CC4)C3)c21
3. CN1C[C@@H]2CN(C(=O)c3ccc(Cn4ncc5nc(N)nc(NCC6CC7(CC7)C6)c54)c(OC(F)F)c3)C[C@@H]2C1
4. CCC[C@@H](CCO)Nc1nc(N)nc2cnn(Cc3ncc(C4CC5(C4)CN(C4CCOCC4)C5)cc3OC)c12

Output:
1. 7.16
2. 6.94
3. 6.90
4. 7.34

---

system: CD69 in human whole blood; assay: Induction of CD69 in human whole blood (hWB); type: cell-based; conditions: heparinized human whole blood, 17 h, CD69 surface staining; 100% set to 1 uM resiquimod; average where assay repeated
pEC50: −log10 of the molar value.
Respond with Criterion met for pEC50 values of 7 and above, Criterion not met for values below.

// below: answered compounds
compound="CN1CCN(C(=O)c2ccc(Cn3ncc4nc(N)nc(NCC5CC6(CC6)C5)c43)c(OC(F)F)c2)CC1 [Compound 221]" measured_target="CD69 in human whole blood" label_class="Criterion met"
compound="CCC[C@@H](CCO)Nc1nc(N)nc2cnn(Cc3ccc(C(=O)N4CC5(CN(CCO)C5)C4)cc3OC)c12 [Compound 233]" measured_target="CD69 in human whole blood" label_class="Criterion not met"
compound="CCCCNc1nc(N)nc2cnn(Cc3ccc(CN4CCC5(C4)CN(CCO)C5)cc3OC)c12 [Compound 262]" measured_target="CD69 in human whole blood" label_class="Criterion met"

Task: Item COc1cc(CN2C[C@@H]3C[C@H]2CN3)ccc1Cn1ncc2nc(N)nc(NCC3CC4(C3)CC4(F)F)c21 (stereo partly shown) [Compound 141] with pEC50 of 7 or above?
Output: Criterion not met

Task: Item COc1cc(C(=O)NC2CCN(C3CC3)CC2)ccc1Cn1ncc2nc(N)nc(NCC3CC4(CC4)C3)c21 [Compound 195] with pEC50 of 7 or above?
Output: Criterion not met

---

test system: CD69 in human whole blood; assay: Induction of CD69 in human whole blood (hWB); format: cell-based; details: heparinized human whole blood, 17 h, CD69 surface staining; 100% set to 1 uM resiquimod; average where assay repeated
Assay Metric: EC50 (µM)
Numbers only, in µM.

Recorded EC50, per entry:
compound="COc1cc(CN2CC3(C2)CN(C[C@H](C)O)C3)ccc1Cn1ncc2nc(N)nc(NCC3CC4(CC4)C3)c21 [Compound 241]" assay_metric=EC50 reported=0.014
compound="CCCCNc1nc(N)nc2cnn(Cc3ccc(CN4CCC5(CNC5)C4)cc3OC)c12 [Compound 258]" assay_metric=EC50 reported=0.0065
compound="COc1cc(C(=O)N2C[C@@H]3C[C@H]2CN3C)ccc1Cn1ncc2nc(N)nc(NCC3CC4(CC4)C3)c21 [Compound 179]" assay_metric=EC50 reported=0.0131

Now consider the entry below.
Lab note: COc1cc(C(=O)N2CC3(CN(C)C3)C2)ccc1Cn1ncc2nc(N)nc(NCC3CC4(C3)CC4(F)F)c21 (stereo not shown) [Compound 149] gave EC50 of 0.031
